A collection of molecules and their measured INHIBITION
Tested on: Plasmodium berghei
Test Name: Screen against P. berghei liver stage (PbLuc), transformed with Luciferase, at 10uM
Assay type: functional, HepG2
Condition Summary: tested at 10 uM
The campaign covered roughly 69,000 compounds. About 8,600 (12%) showed an effect of 50% or more. The sample as a whole holds a higher share of strong results than the screen did.
The answer should read as a number with its unit following.

| Molecule | System Under Test | INHIBITION |
| --- | --- | --- |
| Cc1ccsc1CN(Cc1ccccn1)CC(C)C | Plasmodium berghei | -21.5% |
| COc1ccc(CCC2CCCN(C(=O)c3cnc(N)nc3C)C2)cc1 (stereo unspecified) | Plasmodium berghei | 34.9% |
| CCc1cc(NCCCNS(C)(=O)=O)nc(-c2ccncc2)n1 | Plasmodium berghei | 15.2% |
| Cc1ccc(-c2ncc(C(=O)N3CCCC(CCN)C3)c(O)n2)cc1 (stereo unspecified) | Plasmodium berghei | 53.8% |
| Cc1ccc(-c2ncc(C(=O)N3CCC[C@H](N)C3)c(O)n2)cc1 | Plasmodium berghei | 42.2% |

# returns recorded INHIBITION (system: Plasmodium berghei) for Cc1nc(N)ncc1C(=O)N1CCCC(CCc2ccc(F)c(F)c2)C1 (stereo unspecified) 38.5%

Continue with Cc1nc(N)ncc1C(=O)N1CCCC(CCc2ccc(F)cc2)C1 (stereo unspecified) 90.3%

Continue with COCCN1CCC2(CCC1=O)CN(C1CCOCC1)CCN2C (stereo unspecified) 17.8%

Continue with CSc1ccc(C(=O)C2CCCN(C(=O)CCn3cnnn3)C2)cc1 (stereo unspecified) 5.91%

Continue with Cc1ccc(NCc2cnc3n2CCN(c2ncccn2)CC3)nn1 35.2%

Continue with Cc1noc([C@@H]2C[C@H]3CN(CC4CCOCC4)C[C@H]3O2)n1 -7.7%
